# Test system: HS 578T breast
# ASSAY_EXPLANATION: NCI-60 one-dose screen, 48 h
# COND: 10 µM unless noted
This is part of a sample that, as a whole, favours compounds with a hit. Of some 83,000 tested, about 20% had one in any assay. Calls of active or inactive are those of the source. The calls were made as follows: active = growth percent below 10; inactive = the rest.
Give one outcome, nothing more. List: class 1 (active), class 0 (inactive)

Which outcome was assigned to O=C(Nc1nc2ccc(OC(F)(F)F)cc2s1)c1ccc(F)cc1 in this test?
class 0

Which outcome was assigned to CCCCCc1c(C)[nH]c(/C=C2\N=C(c3ccc[nH]3)C=C2Oc2ccc(Cl)cc2)c1C in this test?
class 1

Which outcome was assigned to CCc1ccc(-c2nc(SCC(=O)NC3CCCCC3)n[nH]2)cc1 in this test?
class 0

Which outcome was assigned to COc1ccc2cc(C3=CC(=O)CCC3)ccc2c1 in this test?
class 0

Which outcome was assigned to COC(=O)N/N=C/c1coc2ccc(Cl)cc2c1=O in this test?
class 0

Which outcome was assigned to COc1cc(/C=C/C(=O)C(C(=O)/C=C/c2ccc(OC(=O)CCNc3nnc(C)s3)c(OC)c2)C(=O)CCNc2nnc(C)s2)ccc1OC(=O)CCNc1nnc(C)s1 in this test?
class 0

Which outcome was assigned to CN1CCN(c2nc3scc(-c4ccccc4)c3c(=O)[nH]2)CC1 in this test?
class 0

Which outcome was assigned to Cc1n(Cc2ccc3ccccc3c2)c2ccccc2[n+]1Cc1ccc2ccccc2c1 in this test?
class 1

Which outcome was assigned to ICCC(c1ccccc1)(c1ccccc1)c1ccccc1 in this test?
class 0

Which outcome was assigned to C[C@@H]1C[C@@H]([C@@H](CC2CC(=O)NC(=O)C2)OC(=O)CC(=O)c2ccccc2)C(=O)[C@@H](C)C1 in this test?
class 0

Which outcome was assigned to CCOC(=O)c1cnc2c(C)cc(C)cc2c1NCCCN(C)C in this test?
class 0

Which outcome was assigned to CC12CCC3C(=CCc4cc(O)ccc43)C1CCC2=O (stereo not given) in this test?
class 0

Which outcome was assigned to NS(=O)(=O)N(c1cc(C(F)(F)F)cc(C(F)(F)F)c1)C1CCN(Cc2ccc(C(F)(F)F)cc2)CC1 in this test?
class 0

Which outcome was assigned to CCOC(=O)/C(=C/CC/C(C)=C/CC/C(C)=C/CCc1ccoc1)CC(=O)N1CCCCC1 in this test?
class 0

Which outcome was assigned to CCN(CC)CCSc1ncnc2c1cnn2-c1ccc(S(N)(=O)=O)cc1 in this test?
class 0

Which outcome was assigned to N#CSCC1CC(O)(c2ccccc2)C(c2ccccc2)C(c2ccc(Cl)cc2)O1 (stereo not given) in this test?
class 1

Which outcome was assigned to Cc1ccc2nc3c(n2c1)C(=O)C(=O)c1ccccc1-3 in this test?
class 1

Which outcome was assigned to O=C(CN1CCN(c2ccc(Cl)cc2)CC1)N1CCN(c2nnc(-c3ccccc3)c(-c3ccccc3)n2)CC1 in this test?
class 0

Which outcome was assigned to CN1CCC[C@@H]1CCO[C@](C)(c1ccccc1)c1ccc(Cl)cc1 in this test?
class 0

Which outcome was assigned to CCOC(=O)c1cc2oc(/C=C/c3cc(=O)c4cc(Cl)ccc4o3)cc2[nH]1 in this test?
class 0

###

# Tested on: UO-31 renal
# ASSAY_EXPLANATION: NCI-60 one-dose screen, 48 h (100 = growth as untreated, 0 = no growth, -100 = all killed)
# COND: 10 µM unless noted
About 83,000 compounds went through this panel and 20% of them were active in at least one assay; those are over-represented in the sample as a whole. The source made the active and inactive calls. How the source made its calls: active means growth percent below 10; inactive means the rest.
READOUT_TYPE: growth

I am curious: what growth value has been reported for O=C(C(=O)c1cc(Br)ccc1O)c1cc(Br)ccc1O ?
24.8% (inactive)

I am curious: what growth value has been reported for Clc1ccc2[nH]cc(-c3cncn3CCc3ccccc3)c2c1 ?
42.2% (inactive)

I am curious: what growth value has been reported for O=C(Nc1ccc2c(c1)C(=O)c1ccccc1-2)c1ccccc1 ?
69.7% (inactive)

I am curious: what growth value has been reported for CCCCCc1c(C)[nH]c(/C=C2\N=C(c3ccc[nH]3)C=C2OCc2ccccc2)c1C ?
-93.6% [100 µM] (active)

I am curious: what growth value has been reported for C[C@H]1C(=O)N2c3ccccc3[C@@]3(O)C[C@@H](n4cnc5ccccc5c4=O)C(=O)N1[C@@H]23 ?
86.5% (inactive)

###

# System: EKVX NSCLC
# ASSAY_EXPLANATION: NCI-60 one-dose screen, 48 h
# COND: 10 µM unless noted
This is part of a sample that, as a whole, favours compounds with a hit. Of some 83,000 tested, about 20% had one in any assay. Calls of active or inactive are those of the source. Rule for the calls: active = growth percent below 10; inactive = the rest.
Give one outcome, nothing more. List: Y = active, N = inactive

Which outcome was assigned to COc1cc(/C=C2\CN(S(=O)(=O)c3ccc(C)cc3)C/C(=C\c3cc(CN4CCOCC4)c(O)c(OC)c3)C2=O)cc(CN2CCOCC2)c1O in this test?
N

Which outcome was assigned to CC(C)Sc1nc(-c2ccc(Br)cc2)c(C#N)c(N2CCCCC2)n1 in this test?
N

Which outcome was assigned to Cc1ccccc1NC(=O)N/C(N)=N/c1nc2ccccc2s1 in this test?
N

Which outcome was assigned to COC(=O)Nc1ccc2ccc3c(NC(=O)OC)ccc4ccc1c2c43 (tested in a mixture with another compound) in this test?
N

Which outcome was assigned to COc1ccc(NS(=O)(=O)N2CCCCC2)cc1 in this test?
N

Which outcome was assigned to CCOC(=O)c1sc(NC(=O)COc2cccc(/C=C3\CCc4cc(OC)ccc4C3=O)c2)nc1C in this test?
N

Which outcome was assigned to O=[N+]([O-])c1ccc(N=Nc2c(Cl)cc(O)cc2Cl)cc1 in this test?
Y

Which outcome was assigned to C[C@]12CC[C@H](O)CC1=CC[C@@H]1[C@@H]2CC[C@]2(C)C(c3cccnc3)=CC[C@@H]12 in this test?
N

Which outcome was assigned to CSc1nc(Nc2ccc(S(=O)(=O)Nc3ccon3)cc2)c(C#N)c(-c2ccc(Cl)cc2)n1 in this test?
N

Which outcome was assigned to O=C(c1ccc(N2CCOCC2)cc1[N+](=O)[O-])N1CCOCC1 in this test?
N

###

# System: NCI-H226 lung
# ASSAY_EXPLANATION: NCI-60 one-dose screen, 48 h
# COND: 10 µM unless noted
This is part of a sample that, as a whole, favours compounds with a hit. Of some 83,000 tested, about 20% had one in any assay. Active and inactive are the calls of the source. How the source made its calls: active means growth percent below 10; inactive means the rest.
Give one outcome, nothing more. List: active, inactive

Which outcome was assigned to N#Cc1c(NC(=O)c2ccco2)[n+]([O-])c2ccccc2[n+]1[O-] in this test?
inactive

Which outcome was assigned to NC(=O)c1cc(Cl)ccc1NC(=O)c1ccccc1-c1ccccc1 in this test?
inactive

Which outcome was assigned to COc1cc(/C=N/NC(=O)c2ccc(C(F)(F)F)nc2Nc2ccc(Cl)cc2C)ccc1O in this test?
inactive

Which outcome was assigned to [N-]=[N+]=NCc1cccc(/C(O)=C/C(=O)C(=O)O)c1 in this test?
inactive

Which outcome was assigned to COc1cccc(/C=N\NC(=O)c2ccncc2)c1O in this test?
inactive

Which outcome was assigned to COC(=O)[C@H](Cc1cn(C)cn1)NC(=O)[C@H](C)NC(=O)Nc1cc(C(F)(F)F)cc(C(F)(F)F)c1 in this test?
active

Which outcome was assigned to CCOC(=O)C(C(=O)OCC)C1CCCCC1 in this test?
inactive

Which outcome was assigned to C=CCNC(=O)/C(=C/c1cccc([N+](=O)[O-])c1)NC(=O)c1ccccc1 in this test?
inactive

Which outcome was assigned to O=C(Nc1ccccc1OC(=O)c1ccccc1)c1ccccc1 in this test?
inactive

Which outcome was assigned to O=C(/C=C/c1ccc([N+](=O)[O-])cc1)c1ccc2c3c(cccc13)CC2 in this test?
inactive

Which outcome was assigned to COc1ccc(C2=NN(C(C)=O)C(c3c(C)nn(-c4ccccc4)c3N3CCOCC3)C2)cc1 (configuration not stated) in this test?
inactive

Which outcome was assigned to O=C(NN1C(=O)c2cc(C(=O)O)c(C(=O)O)cc2C1=O)c1ccncc1 in this test?
inactive

Which outcome was assigned to CCSc1nc(Nc2ccc(S(=O)(=O)Nc3ccon3)cc2)c(C#N)c(-c2cccc(Br)c2)n1 in this test?
inactive

Which outcome was assigned to O=C(C(=O)N1CCOCC1)c1cn(CCCn2cc(C(=O)C(=O)N3CCOCC3)c3ccccc32)c2ccccc12 in this test?
inactive

Which outcome was assigned to COc1ccc(OC)c2c1CCC1(C2)NC(=O)NC1=O (configuration not stated) in this test?
inactive

Which outcome was assigned to O=c1c2c(=NCCCN3CCCC3)cc3c(=O)n(CCCN4CCCC4)c(=O)c4c(NCCCN5CCCC5)cc(c(O)n1CCCN1CCCC1)c2c4-3 in this test?
active

Which outcome was assigned to c1ccc(CN=C(NCc2ccccc2)NCc2ccccc2)cc1 in this test?
inactive

Which outcome was assigned to O=C(CNC(=O)c1cccc2ccccc12)Nc1ccccc1Oc1cccc(O)c1 in this test?
inactive

Which outcome was assigned to O=C1N=C(N2CCOCC2)S/C1=C\c1cn(-c2ccccc2)nc1-c1ccccc1 in this test?
inactive

Which outcome was assigned to O=C1C(=O)/C(=C/c2ccccc2)CCCCCC/C1=C/c1ccccc1 in this test?
inactive

Which outcome was assigned to CCCCCCCCCCOC(C)=O in this test?
inactive

Which outcome was assigned to NS(=O)(=O)c1cc2c(cc1Cl)NC=NS2(=O)=O in this test?
inactive
